Value source: ChEMBL document CHEMBL5724796

# EXPERIMENTAL_SYSTEM: Fibroblast growth factor receptor 2 (Homo sapiens) (UniProt P21802)
# Sequence (P21802 22-821 limits assumed): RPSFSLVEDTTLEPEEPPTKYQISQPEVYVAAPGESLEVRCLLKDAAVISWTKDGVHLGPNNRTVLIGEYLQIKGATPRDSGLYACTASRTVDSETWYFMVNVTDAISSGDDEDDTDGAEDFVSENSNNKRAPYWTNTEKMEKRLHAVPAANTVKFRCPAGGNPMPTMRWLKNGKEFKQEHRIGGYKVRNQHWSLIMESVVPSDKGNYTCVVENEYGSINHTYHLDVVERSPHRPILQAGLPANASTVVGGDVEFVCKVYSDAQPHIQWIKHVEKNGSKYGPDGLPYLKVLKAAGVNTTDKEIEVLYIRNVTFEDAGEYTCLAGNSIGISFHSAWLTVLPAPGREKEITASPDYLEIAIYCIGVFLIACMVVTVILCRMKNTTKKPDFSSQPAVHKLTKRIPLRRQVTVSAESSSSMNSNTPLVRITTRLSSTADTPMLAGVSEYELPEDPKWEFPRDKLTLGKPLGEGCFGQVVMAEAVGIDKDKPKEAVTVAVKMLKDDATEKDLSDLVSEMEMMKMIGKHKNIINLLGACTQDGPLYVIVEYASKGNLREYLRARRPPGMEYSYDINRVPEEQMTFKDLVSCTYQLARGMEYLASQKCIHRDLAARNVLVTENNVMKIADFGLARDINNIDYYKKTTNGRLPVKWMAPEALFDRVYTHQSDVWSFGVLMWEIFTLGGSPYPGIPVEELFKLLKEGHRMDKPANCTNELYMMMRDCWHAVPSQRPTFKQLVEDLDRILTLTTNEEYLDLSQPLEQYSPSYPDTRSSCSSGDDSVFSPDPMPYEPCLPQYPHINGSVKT
# TEST_CONTEXT: Compound concentration 20.0 uM
# Description: Thermal Shift Assay. Domain: start/stop: T457-E768
Non-standard residues stand in square brackets, D forms with d. Residues, ends and D or L forms follow the SMILES beside them. Nle = CCCC[C@H](N)C(=O)O

>  <COMPOUND>
CCOc1ccc(Cc2cc([C@@H]3O[C@H](CO)[C@@H](O)[C@H](O)[C@H]3O)ccc2Cl)cc1

>  <ΔTm / °C>
0.15

$$$$
>  <COMPOUND>
Nc1ccccc1NC(=O)CCCCCC(=O)Nc1ccccc1

>  <ΔTm / °C>
0.58

$$$$
>  <COMPOUND>
CCCC[C@@H](C=O)NC(=O)[C@H](CC(C)C)NC(=O)[C@H](CC(C)C)NC(C)=O (Ac-Leu-Leu-[Nle]-aldehyde)

>  <ΔTm / °C>
0.84

$$$$
>  <COMPOUND>
Cn1nc2c(=O)n(CC3(O)CCN(C(=O)C[C@H](c4ccccc4)C(F)(F)F)CC3)cnc2c1-c1ccc(CN)cc1

>  <ΔTm / °C>
-0.7

$$$$
